Test system: non small cell lung cancer (NSCLC) cell lines
methodNotes: cells
conditionNotes: Homo sapiens, SK-LU-1, 72 h, read-out: Average IC50 (μM)
measuredProperty: IC50 (µM)
// units = µM; emit number, no label

Query :: Endpoint output: IC50 of `CNC(=O)c1ccc(Nc2nc(OC3CCCC3)c3c(-c4ccc(O)cc4)c[nH]c3n2)c(OC)c1` . Value?
Result :: 0.83

----------
Test system: non small cell lung cancer (NSCLC) cell lines
methodNotes: cells
conditionNotes: Homo sapiens, SW1573, 72 h, read-out: Average IC50 (μM)
measuredProperty: IC50
Note: a bare number is incomplete; add the unit.

Query :: What value of IC50 on non small cell lung cancer (NSCLC) cell lines does `CNC(=O)c1ccc(Nc2nc(OC3CCCC3)c3c(-c4ccc(O)cc4)c[nH]c3n2)c(OC)c1` have?
Result :: 0.96 µM

----------
targetSystem: UniProtKB P49760
Sequence (P49760 whole entry): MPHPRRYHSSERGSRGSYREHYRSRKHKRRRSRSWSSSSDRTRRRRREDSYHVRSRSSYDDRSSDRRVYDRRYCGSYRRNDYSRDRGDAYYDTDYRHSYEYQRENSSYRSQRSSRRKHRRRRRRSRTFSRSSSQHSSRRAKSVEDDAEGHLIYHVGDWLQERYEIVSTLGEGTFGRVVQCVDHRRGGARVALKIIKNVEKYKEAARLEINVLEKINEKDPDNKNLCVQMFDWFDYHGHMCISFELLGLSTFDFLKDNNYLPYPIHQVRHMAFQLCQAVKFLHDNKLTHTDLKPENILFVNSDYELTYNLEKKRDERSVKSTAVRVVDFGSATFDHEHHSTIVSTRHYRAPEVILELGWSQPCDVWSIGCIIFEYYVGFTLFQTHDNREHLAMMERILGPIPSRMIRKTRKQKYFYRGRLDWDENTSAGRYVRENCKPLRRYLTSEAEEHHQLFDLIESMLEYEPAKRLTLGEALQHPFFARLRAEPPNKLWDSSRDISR
methodNotes: biochemical
conditionNotes: read-out: CLK2 (% Inh.), % inhibition at 3 μM
Reported inhibition at 3 µM values are given for each entry in this list.
// units = %; emit number, no label

Sample answers from the record:
Cc1nc2ccc(-c3c[nH]c4nc(Nc5ccc(C(=O)N(C)C)cc5C)nc(O[C@H]5CCOC5)c34)cc2o1; 104
COc1cc(C(=O)N[C@H](C)CO)ccc1Nc1nc(OC2CCCC2)c2c(-c3ccc4nc(C)oc4c3)c[nH]c2n1; 100

Query :: What value of inhibition at 3 µM on UniProtKB P49760 does `COc1nc(Nc2ccc(C(=O)N(C)C)cc2C)nc2[nH]cc(-c3ccncc3)c12` have?
Result :: 100

Query :: What value of inhibition at 3 µM on UniProtKB P49760 does `Cc1nc2ccc(-c3c[nH]c4nc(Nc5cnn(C)c5C)nc(OC5CCCC5)c34)cc2o1` have?
Result :: 104

----------
Test system: breast cancer cell lines
methodNotes: cells
conditionNotes: Homo sapiens, HCC1569, 96 h, read-out: Growth Inhibition IC50
measuredProperty: IC50
Note: a bare number is incomplete; add the unit.

CNC(=O)c1ccc(Nc2nc(OC3CCCC3)c3c(-c4ccc(O)cc4)c[nH]c3n2)c(OC)c1 [Compound 3]; 5430 nM

Let us examine a further case.
Query :: Endpoint output: IC50 of CNC(=O)c1ccc(Nc2nc(OC(C)C)c3c(-c4ccc5nc(C)oc5c4)c[nH]c3n2)c(OC)c1 [Compound 125] . Value?
Result :: 408 nM

----------
Reported pIC50 values are given for each entry in this list.
Tested on: breast cancer cell lines
methodNotes: cells
conditionNotes: Homo sapiens, AU565, 96 h, read-out: Growth Inhibition IC50
By convention, pIC50 is the negative base-10 log of a molar concentration.

CNC(=O)c1ccc(Nc2nc(OC3CCCC3)c3c(-c4ccc(O)cc4)c[nH]c3n2)c(OC)c1 [Compound 3]; 5.96

Query :: Endpoint output: pIC50 of CNC(=O)c1ccc(Nc2nc(OC(C)C)c3c(-c4ccc5nc(C)oc5c4)c[nH]c3n2)c(OC)c1 [Compound 125] . Value?
Result :: 7.68

----------
targetSystem: CLK1 (Homo sapiens (Human), UniProt P49759)
Sequence (P49759 whole entry): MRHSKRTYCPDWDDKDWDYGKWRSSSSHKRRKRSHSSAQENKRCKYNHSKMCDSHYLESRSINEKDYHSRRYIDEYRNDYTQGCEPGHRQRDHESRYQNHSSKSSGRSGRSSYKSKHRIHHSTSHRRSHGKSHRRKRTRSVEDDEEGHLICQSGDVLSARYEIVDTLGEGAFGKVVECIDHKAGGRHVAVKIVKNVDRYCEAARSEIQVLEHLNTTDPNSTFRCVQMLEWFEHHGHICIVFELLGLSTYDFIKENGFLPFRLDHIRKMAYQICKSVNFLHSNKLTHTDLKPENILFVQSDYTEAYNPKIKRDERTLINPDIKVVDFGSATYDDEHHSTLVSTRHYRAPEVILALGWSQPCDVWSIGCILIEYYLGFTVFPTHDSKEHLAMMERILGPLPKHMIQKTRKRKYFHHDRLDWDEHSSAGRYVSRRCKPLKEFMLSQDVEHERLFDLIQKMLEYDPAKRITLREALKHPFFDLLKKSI
methodNotes: biochemical
conditionNotes: read-out: CLK1 (% Inh.), % inhibition at 3 μM
measuredProperty: inhibition at 3 µM (%)
// units = %; emit number, no label

CNC(=O)c1ccc(Nc2nc(OC3CCCC3)c3c(-c4ccc(O)cc4)c[nH]c3n2)c(OC)c1; 91
CCOc1ccc(-c2c[nH]c3nc(Nc4ccc(C(=O)NC)cc4C)nc(O[C@H]4CCOC4)c23)cn1; 100
CNC(=O)c1ccc(Nc2nc(OC3CCOCC3)c3c(-c4ccc(O)cc4)c[nH]c3n2)c(OC)c1; 97
Cc1nc2ccc(-c3c[nH]c4nc(Nc5cnn(CC(C)(C)O)c5Cl)nc(OC5CCCC5)c34)cc2o1; 100
CCc1cc(C(=O)NC)ccc1Nc1nc(OC2CCOCC2)c2c(-c3ccc4nc(C)oc4c3)c[nH]c2n1; 100

Query :: What value of inhibition at 3 µM on CLK1 (Homo sapiens (Human), UniProt P49759) does `COc1cc(C(=O)N[C@H](C)CO)ccc1Nc1nc(OC2CCCC2)c2c(-c3ccc4nc(C)oc4c3)c[nH]c2n1` have?
Result :: 97

Query :: What value of inhibition at 3 µM on CLK1 (Homo sapiens (Human), UniProt P49759) does `CNC(=O)c1ccc(Nc2nc(OC3CCOCC3)c3c(-c4ccc(-c5nc(C)c(C)[nH]5)cc4)c[nH]c3n2)c(OC)c1` have?
Result :: 100

Query :: What value of inhibition at 3 µM on CLK1 (Homo sapiens (Human), UniProt P49759) does `CNC(=O)c1ccc(Nc2nc(OC(C)C)c3c(-c4ccc(-c5ncc[nH]5)cc4)c[nH]c3n2)c(OC)c1` have?
Result :: 100

Query :: What value of inhibition at 3 µM on CLK1 (Homo sapiens (Human), UniProt P49759) does `CC[C@@H](C)Oc1nc(Nc2ccc(C(=O)NC)cc2OC)nc2[nH]cc(-c3ccc4nc(C)oc4c3)c12` have?
Result :: 98

Query :: What value of inhibition at 3 µM on CLK1 (Homo sapiens (Human), UniProt P49759) does `Cc1nc2ccc(-c3c[nH]c4nc(Nc5cn(C)nc5C)nc(OC5CCCC5)c34)cc2o1` have?
Result :: 99

----------
targetSystem: CLK1 (Homo sapiens (Human))
methodNotes: biochemical
conditionNotes: read-out: CLK1 (% Inh.), % inhibition at 3 μM
measuredProperty: inhibition at 3 µM (%)
// units = %; emit number, no label

CNC(=O)c1ccc(Nc2nc(OC(C)C)c3c(-c4ccnc(C)c4)c[nH]c3n2)c(OC)c1; 100
CC[C@H](C)Oc1nc(Nc2ccc(C(=O)NC)cc2OC)nc2[nH]cc(-c3ccc4nc(C)oc4c3)c12; 98
CNC(=O)c1ccc(Nc2nc(OC3CCC(C)(O)CC3)c3c(-c4ccc5nc(C)oc5c4)c[nH]c3n2)c(Cl)c1 (centres unmarked); 96
CNC(=O)c1ccc(Nc2nc(OC3CCOCC3)c3c(-c4ccn(C)n4)c[nH]c3n2)c(OC)c1; 100
CNC(=O)c1ccc(Nc2nc(NC3CCCC3)c3c(-c4ccc(O)cc4)c[nH]c3n2)c(OC)c1; 92
COc1cc(C(=O)NCCO)ccc1Nc1nc(OC2CC2)c2c(-c3ccc4nc(C)oc4c3)c[nH]c2n1; 99
Cc1nc2ccc(-c3c[nH]c4nc(Nc5ccc(C(=O)N(C)C)cc5C)nc(O[C@H]5CCOC5)c34)cc2o1; 103

Let us examine a further case.
Query :: Endpoint output: inhibition at 3 µM of `CNC(=O)c1ccc(Nc2nc(O[C@H]3CCOC3)c3c(-c4ccc5nc(C)oc5c4)c[nH]c3n2)c(OC)c1` . Value?
Result :: 100

----------
targetSystem: CLK1 (Homo sapiens (Human), UniProt P49759)
methodNotes: biochemical
conditionNotes: read-out: CLK1 (% Inh.), % inhibition at 3 μM
measuredProperty: inhibition at 3 µM (%)
// units = %; emit number, no label

Sample answers from the record:
CNC(=O)c1ccc(Nc2nc(OC(C)C)c3c(-c4ccnc(OC)c4)c[nH]c3n2)c(OC)c1; 98
COc1cc(C(=O)NCCO)ccc1Nc1nc(OC2CCOCC2)c2c(-c3ccc4nc(C)oc4c3)c[nH]c2n1; 99
COc1nc(Nc2ccc(C(=O)N(C)C)cc2C)nc2[nH]cc(-c3ccncc3)c12; 101
CNC(=O)c1ccc(Nc2nc(OC3CCCC3)c3c(-c4ccc(O)cc4)c[nH]c3n2)c(C(C)C)c1; 95
CNC(=O)c1ccc(Nc2nc(O[C@H]3CCOC3)c3c(-c4ccc5nc(C)oc5c4)c[nH]c3n2)c(C)c1; 104
COc1nc(Nc2ccc(C(=O)N(C)C)cc2Cl)nc2[nH]cc(-c3ccncc3)c12; 95
Cc1nc2ccc(-c3c[nH]c4nc(Nc5cnn(C)c5C)nc(OC5CCCC5)c34)cc2o1; 101
CNC(=O)c1ccc(Nc2nc(OC3CCOCC3)c3c(-c4ccc5nc(C)n(C)c5c4)c[nH]c3n2)c(OC)c1; 99
CNC(=O)c1ccc(Nc2nc(OC)c3c(-c4ccc(OC)nc4)c[nH]c3n2)c(OC)c1; 98
COc1cc(C(=O)NCCO)ccc1Nc1nc(OC(C)C)c2c(-c3ccc4nc(C)oc4c3)c[nH]c2n1; 98

Query :: What value of inhibition at 3 µM on CLK1 (Homo sapiens (Human), UniProt P49759) does CNC(=O)c1ccc(Nc2nc(OC3CCC(C)(O)CC3)c3c(-c4ccc5nc(C)oc5c4)c[nH]c3n2)c(C)c1 (stereo not drawn) have?
Result :: 99

Query :: What value of inhibition at 3 µM on CLK1 (Homo sapiens (Human), UniProt P49759) does `Cc1cc(C(=O)N(C)C)ccc1Nc1nc(OC2CCOCC2)c2c(-c3ccnc(C#N)c3)c[nH]c2n1` have?
Result :: 97

Query :: What value of inhibition at 3 µM on CLK1 (Homo sapiens (Human), UniProt P49759) does `CNC(=O)c1ccc(-c2c[nH]c3nc(Nc4cn(C)nc4C)nc(OC4CCC4)c23)cc1` have?
Result :: 100

Query :: What value of inhibition at 3 µM on CLK1 (Homo sapiens (Human), UniProt P49759) does `CNC(=O)c1ccc(Nc2nc(OC(C)C)c3c(-c4ccc5nc(C)oc5c4)c[nH]c3n2)c(Cl)c1` have?
Result :: 101

Query :: What value of inhibition at 3 µM on CLK1 (Homo sapiens (Human), UniProt P49759) does CNC(=O)c1ccc(Nc2nc(OC3CCC(C)(O)CC3)c3c(-c4ccc5nc(C)oc5c4)c[nH]c3n2)c(OC)c1 (stereo not drawn) have?
Result :: 99
